target: STIM1/Orai1 CRAC channel (Homo sapiens); assay: FLIPR assay of Orai1/STIM1-dependent Ca2+ entry in stably transfected STIM1/Orai1 cells; conditions: read-out: IC50 (inhibition of calcium inflow)
Sequence (Q96D31 whole entry): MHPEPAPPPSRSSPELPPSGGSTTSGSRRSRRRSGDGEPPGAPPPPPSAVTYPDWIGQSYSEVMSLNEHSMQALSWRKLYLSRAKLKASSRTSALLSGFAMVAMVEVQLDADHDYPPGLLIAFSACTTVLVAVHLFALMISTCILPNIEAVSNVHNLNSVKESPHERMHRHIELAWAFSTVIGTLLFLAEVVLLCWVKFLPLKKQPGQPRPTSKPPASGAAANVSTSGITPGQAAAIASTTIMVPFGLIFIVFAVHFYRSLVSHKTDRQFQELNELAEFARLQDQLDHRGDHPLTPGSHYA
reported property: IC50 (µM)
Form entry: value (µM) — number only.

Need IC50 of `O=C(Nc1scc(-c2ccc(Br)cc2)c1C(=O)O)c1cccc(F)c1` , thanks.
1.9

---

tested on: HEK[STIM1] cells (STIM1 overexpression); conditions: read-out: IC50 of inhibition of constitutive calcium entry, absence of store depletion
reported property: IC50 (µM)
Enter your answer as a number in µM; do not include the unit.

Item under review: NCCOB(c1ccccc1)c1ccccc1 [2-APB, 2-aminoethoxydiphenyl borate] . Reported IC50?
10.8

Source of measurements: patent US8507269B2
